Test system: KRAS G12V-dependent Ba/F3 cells
Experiment: Ba/F3 proliferation assay, KRAS G12V
Assay type: cell-based
Details: Mus musculus, BaF3, 72 h, AlamarBlue
Assay Metric: IC50 (nM)

See these solved cases before continuing.
[[record]]
compound = "CO[C@H]1CCN(C)[C@@H]1[C@H](C)Oc1cc(-n2ccc(C(=O)N[C@@H]3CCOC3)n2)nc(-c2noc3c2CCC[C@@]32CCCc3sc(N)c(C#N)c32)n1"
assay_metric = "IC50"
unit_name = "nM"
reported_result = 1

[[record]]
compound = "C[C@H](Oc1cc([C@@H]2CCOC2)nc(-c2onc3c2CCC[C@@]32CCCc3sc(N)c(C#N)c32)n1)[C@@H]1CCCN1C"
assay_metric = "IC50"
unit_name = "nM"
reported_result = 9

[[record]]
compound = "C[C@H](Oc1cc(N2CCNCC23CCOC3)nc(-c2onc3c2CCC[C@@]32CCCc3sc(N)c(C#N)c32)n1)[C@@H]1CCCN1C (stereo partly drawn)"
assay_metric = "IC50"
unit_name = "nM"
reported_result = 247


a. CO[C@@H]1C[C@@H]([C@H](C)Oc2cc(-n3ccnc3)nc(-c3noc4c3CCC[C@@]43CCCc4sc(N)c(C#N)c43)n2)N(C)C1
b. C[C@H](Oc1cc(-n2cnc3cccnc32)nc(-c2noc3c2CCC[C@@]32CCCc3sc(N)c(C#N)c32)n1)[C@@H]1CCCN1C
c. CO[C@H]1CCN(C)[C@@H]1[C@H](C)Oc1cc(-n2ccc(CC(=O)NC(C)C)n2)nc(-c2onc3c2CCC[C@@]32CCCc3sc(N)c(C#N)c32)n1
Given 3 compounds, produce a descending ranking by IC50. Provide your answer as the labels ordered per the instruction.
b, a, c

Values were extracted from patent US20240174690A1.
